I'd appreciate it if you could supply clearance values for the items below.
Assay: Mean observed clearance in Swiss albino male mice at 1 mg/kg per compound (administered iv in a mixture of 5 compounds to 3 mice) assessed by LCMS/MS.
Assay type: ADME, organism-based
Conditions: male, Swiss albino, mouse, in vivo, read-out: Clearance (converted)
Numeric answer only, unit mL/min/kg assumed.

Inquiry: Tell me measured clearance for Fc1ccc(-c2cn3c(-c4ccc5[nH]ncc5c4F)c(C(F)(F)F)nc3cn2)cc1C1CCC1 please.
Reply text: 35.7

Inquiry: Tell me measured clearance for COc1ccc(-c2c(C(C)C)nc3cnc(-c4cccc(C(F)(F)F)c4)cn23)cc1O please.
Reply text: 79.2

Inquiry: Tell me measured clearance for COc1ccc(-c2c(C)nc3ccc(-c4cccc(C(F)(F)F)c4)cn23)cc1O please.
Reply text: 158

Inquiry: Tell me measured clearance for Fc1c(-c2c(C(F)(F)F)nc3cnc(-c4cccc(OC(F)(F)F)c4)cn23)ccc2[nH]ncc12 please.
Reply text: 19.3

Inquiry: Tell me measured clearance for Oc1ccc(-c2cnc3cnc(C4=COCCC4)cn23)cc1 please.
Reply text: 177

Inquiry: Tell me measured clearance for CC1(c2nc3cnc(-c4ccc(F)c(C(F)(F)F)c4)cn3c2-c2c(F)cc(O)cc2F)CC1 please.
Reply text: 15.9

Inquiry: Tell me measured clearance for CC(C)c1nc2cnc(-c3ccc(F)c(S(F)(F)(F)(F)F)c3)cn2c1-c1ccc2[nH]ncc2c1F please.
Reply text: 5.75

Inquiry: Tell me measured clearance for COc1ccc(-c2c(C(C)C)nc3cnc(-c4ccnc(N(C)C)c4)cn23)cc1O please.
Reply text: 173

Inquiry: Tell me measured clearance for CCc1nn2cnc(-c3ccc(F)c(C(F)(F)F)c3)cc2c1-c1c(F)cc(O)cc1F please.
Reply text: 58.5

Inquiry: Tell me measured clearance for CC(C)c1nn2cnc(-c3ccc(F)c(C(F)(F)F)c3)cc2c1-c1c(F)cc(O)cc1F please.
Reply text: 25.2

Inquiry: Tell me measured clearance for Cc1nc2cnc(-c3ccc(F)c(C(F)(F)F)c3)cn2c1-c1ccc(O)cc1F please.
Reply text: 48.5

Inquiry: Tell me measured clearance for COc1ccc(-c2c(C(C)C)nc3cnc(-c4cccc(C(F)(F)F)c4)cn23)cc1OP(=O)(O)O please.
Reply text: 345

Inquiry: Tell me measured clearance for Oc1cc(F)c(-c2c(C3CC3)nc3cnc(-c4ccc(F)c(C(F)(F)F)c4)cn23)c(F)c1 please.
Reply text: 2.25

Inquiry: Tell me measured clearance for CC(C)c1nc2cnc(-c3ccc(F)c(C(F)(F)F)c3)cn2c1-c1ccc2[nH]ncc2c1 please.
Reply text: 5.83

Inquiry: Tell me measured clearance for CC(C)c1nc2cnc(-c3cccc(C(F)(F)F)c3)cn2c1-c1ccc(OP(=O)(O)O)cc1F please.
Reply text: 69

Inquiry: Tell me measured clearance for Cc1nc2cnc(-c3cccc(C(F)(F)C(F)(F)F)c3)cn2c1-c1c(F)cc(O)cc1F please.
Reply text: 26.2

Inquiry: Tell me measured clearance for Fc1ccc(-c2cn3c(-c4ccc5[nH]ncc5c4)c(C(F)(F)F)nc3cn2)cc1C(F)(F)F please.
Reply text: 3.08

Inquiry: Tell me measured clearance for Fc1ccc(-c2cn3c(-c4ccc5[nH]ncc5c4F)c(C(F)(F)F)nc3cn2)cc1CC(F)(F)F please.
Reply text: 25.5

Inquiry: Tell me measured clearance for CCc1nc2cnc(-c3cccc(C(F)(F)F)c3)cn2c1-c1ccc(O)cc1F please.
Reply text: 58.2

Inquiry: Tell me measured clearance for CCc1nc2cnc(-c3ccc(F)c(C(F)(F)C(F)(F)F)c3)cn2c1-c1c(F)cc(O)cc1F please.
Reply text: 3.82

Inquiry: Tell me measured clearance for Cc1nc2cnc(-c3ccc(F)c(C(F)(F)F)c3)cn2c1-c1c(F)cc(O)cc1F please.
Reply text: 10.2

Inquiry: Tell me measured clearance for CCc1nc2cnc(-c3ccc(F)c(C(F)(F)F)c3)cn2c1-c1c(F)cc(O)cc1F please.
Reply text: 18

Inquiry: Tell me measured clearance for CC(C)c1nc2cnc(-c3ccc(F)c(C(F)(F)F)c3)cn2c1-c1c(F)cc(O)cc1F please.
Reply text: 18

Inquiry: Tell me measured clearance for CC(C)c1nc2cnc(-c3ccc(F)c(C(F)(F)F)c3)nc2n1-c1c(F)cc(O)cc1F please.
Reply text: 23.3

Inquiry: Tell me measured clearance for Fc1ccc(-c2cn3c(-c4ccc5[nH]ncc5c4F)c(C(F)(F)F)nc3cn2)cc1C1CC1 please.
Reply text: 31.5

Inquiry: Tell me measured clearance for CCc1nc2cnc(-c3ccc(F)c(C(F)(F)F)c3)cn2c1-c1ccc2[nH]ncc2c1F please.
Reply text: 4.02

Inquiry: Tell me measured clearance for Oc1cc(F)c(-c2cnc3cnc(-c4cccc(C(F)(F)F)c4)cn23)c(F)c1 please.
Reply text: 9.63

Inquiry: Tell me measured clearance for Oc1cc(F)c(-c2c(C3CCC3)nc3cnc(-c4ccc(F)c(C(F)(F)F)c4)cn23)c(F)c1 please.
Reply text: 7.9

Inquiry: Tell me measured clearance for Cc1noc(C)c1-c1cn2c(-c3ccc(O)cc3)cnc2cn1 please.
Reply text: 140

Inquiry: Tell me measured clearance for Cc1c(-c2c(C(F)(F)F)nc3cnc(-c4ccc(F)c(C(F)(F)F)c4)cn23)ccc2[nH]ncc12 please.
Reply text: 4.3

Inquiry: Tell me measured clearance for CC(C)c1cc(-c2cn3c(-c4ccc5[nH]ncc5c4F)c(C(C)C)nc3cn2)ccc1F please.
Reply text: 15

Inquiry: Tell me measured clearance for CC(C)c1nn2cnc(-c3cccc(C(F)(F)F)c3)cc2c1-c1c(F)cc(O)cc1F please.
Reply text: 42.8

Inquiry: Tell me measured clearance for CC(C)c1nc2cnc(-c3cccc(C(F)(F)F)c3)cn2c1-c1ccc2[nH]ncc2c1F please.
Reply text: 9.15

Inquiry: Tell me measured clearance for COc1ccc(-c2c(C(C)C)nc3cnc(-c4ccc(F)c(C(F)(F)F)c4)cn23)cc1O please.
Reply text: 58.8

Inquiry: Tell me measured clearance for Fc1ccc(-c2cn3c(-c4ccc5[nH]ncc5c4F)c(C(F)(F)F)nc3cn2)cc1OC(F)(F)F please.
Reply text: 3.23

Inquiry: Tell me measured clearance for Cc1nc2cnc(-c3cccc(C(F)(F)F)c3)cn2c1-c1c(F)cc(O)cc1F please.
Reply text: 86

Inquiry: Tell me measured clearance for COc1ccc(-c2c(C3CC3)nc3cnc(-c4cccc(C(F)(F)F)c4)cn23)cc1O please.
Reply text: 108

---

Assay: Percentage of parent compound remaining after incubation for 90 minutes with cyropreserved human hepatocytes at a concentration of 1uM compound and 1 million cells/uL, determined by LCMS/MS
Type: ADME, tissue-based, Hepatocyte
Conditions: cryopreserved human hepatocytes, read-out: Stability
Field: label. Allowed values: T (remaining at 1.5 h, 1 µM < 40%) or F (remaining at 1.5 h, 1 µM >= 40%).

Inquiry: Does the reported remaining at 1.5 h, 1 µM of the following compound sit strictly below 40%? CCc1nc2cnc(-c3ccc(F)c(C(C)C)c3)cn2c1-c1ccc2[nH]ncc2c1F
Reply text: T

Inquiry: Does the reported remaining at 1.5 h, 1 µM of the following compound sit strictly below 40%? CC(C)c1cc(-c2cn3c(-c4ccc5[nH]ncc5c4F)c(C4CCC4)nc3cn2)ccc1F
Reply text: T

Inquiry: Does the reported remaining at 1.5 h, 1 µM of the following compound sit strictly below 40%? CCc1nc2cnc(-c3ccc(F)c(C(F)(F)C(F)(F)F)c3)cn2c1-c1c(F)cc(O)cc1F
Reply text: F

Inquiry: Does the reported remaining at 1.5 h, 1 µM of the following compound sit strictly below 40%? Fc1ccc(-c2cn3c(-c4ccc5[nH]ncc5c4F)c(C4CC4)nc3cn2)cc1S(F)(F)(F)(F)F
Reply text: F

Inquiry: Does the reported remaining at 1.5 h, 1 µM of the following compound sit strictly below 40%? CC(C)c1cc(-c2cn3c(-c4ccc5[nH]ncc5c4F)c(C(C)C)nc3cn2)ccc1F
Reply text: T

Inquiry: Does the reported remaining at 1.5 h, 1 µM of the following compound sit strictly below 40%? Fc1c(-c2c(C(F)(F)F)nc3cnc(-c4cccc(OC(F)(F)F)c4)cn23)ccc2[nH]ncc12
Reply text: F

Inquiry: Does the reported remaining at 1.5 h, 1 µM of the following compound sit strictly below 40%? Fc1ccc(-c2cn3c(-c4ccc5[nH]ncc5c4F)c(C4CCC4)nc3cn2)cc1C(F)(F)F
Reply text: F

---

Experiment: Concentration required to kill 50% HepG2 cells as detected by MTT staining
Format: toxicity, cell-based
Conditions: homo sapiens, read-out: TC50 (the source's name)
ENDPOINT NAME: CC50 (µM)
Numeric answer only, unit µM assumed.

Inquiry: Tell me measured CC50 for CCc1nc2cnc(-c3cccc(C(F)(F)F)c3)cn2c1-c1ccc(O)cc1F please.
Reply text: 18.7

Inquiry: Tell me measured CC50 for COc1ccc(-c2cnc3ccc(-c4cccc(C(C)C)c4)nn23)cc1O please.
Reply text: 9.24

Inquiry: Tell me measured CC50 for Fc1c(-c2c(C(F)(F)F)nc3cnc(-c4cccc(C(F)(F)C(F)(F)F)c4)cn23)ccc2[nH]ncc12 please.
Reply text: 10.9

Inquiry: Tell me measured CC50 for CC(C)c1nc2cnc(-c3ccc(F)c(C(F)(F)F)c3)cn2c1-c1ccc2[nH]ncc2c1F please.
Reply text: 12

Inquiry: Tell me measured CC50 for Oc1cc(F)c(-c2c(C3CCC3)nc3cnc(-c4ccc(F)c(C(F)(F)F)c4)cn23)c(F)c1 please.
Reply text: 5.7

Inquiry: Tell me measured CC50 for COc1ccc(-c2c(C(C)C)nc3cnc(-c4cccc(C(F)(F)F)c4)cn23)cc1OP(=O)(O)O please.
Reply text: 19.2

Inquiry: Tell me measured CC50 for CC(C)c1nc2cnc(-c3cccc(C(F)(F)F)c3)cn2c1-c1c(F)cc(O)cc1F please.
Reply text: 7.5

Data provenance: ChEMBL document CHEMBL4651341
